# Test system: MCF7 human tumour cells
# assayMethodText: In vitro cell proliferation of MCF-7 cells (WST1)
# Type: cell-based
# statedConditions: 96 hours treatment, WST1 test, average of 2 experiments; read-out: IC50, inhibition of in vitro growth of MCF7 cells
measurementType: IC50 (µM)
Number only, in µM; omit the unit.

Known results for molecules:
>>> readoutnumber("Cc1ccccc1-c1cn2c(n1)C(CC1CCCCC1)N(C(=O)C(N)CS)CC2 (stereo not drawn)")
16.1
>>> readoutnumber("CC(C)CC1c2nc(-c3cccc4ccccc34)cn2CCN1C(=O)C(N)CSSCC(N)C(=O)N1CCn2cc(-c3cccc4ccccc34)nc2C1CC(C)C (stereo not drawn)")
15

# evaluate next
Sample COc1ccccc1-c1cn2c(n1)C(CC1CCCCC1)N(C(=O)C(N)CSSCC(N)C(=O)N1CCn3cc(-c4ccccc4OC)nc3C1CC1CCCCC1)CC2 (stereo not drawn) ; IC50 observed: 9.4
